test system: HOP-92; assay: NCI tumour cell line growth inhibition, 48 h
Activity calls are given as the source filed them. Cut-off read from the data, not from the text of the source: active = GI50 up to about 1.1 µM and inactive = higher.
Labels: active, inactive

CCOC(=O)c1oc2c(OC)cc(Cl)c3c2c1CCC3 : inactive
NC1=Nc2ccccc2Sc2nc3ccccc3n21 : inactive
CC[C@H](NC(=O)OC(C)(C)C)C(=O)NCP(=O)(OCc1ccc([N+](=O)[O-])cc1)OCc1ccc([N+](=O)[O-])cc1 : inactive
c1ccc2c(c1)SC1=C(SC(=C3SC4=C(S3)Sc3ccccc3S4)S1)S2 : inactive
CN1C(=O)CC2(C)c3cc(O)ccc3N(C)C12 (configuration not stated) : inactive
C[C@]12Cc3conc3C(O)=C1CC[C@@H]1C2CC[C@@]2(C)C1CC[C@@H]2O (some centres not stated) : inactive
O=C(CCc1cc(O)cc(O)c1)NCCc1cc(O)cc(OCc2ccccc2)c1 : inactive
Cc1nn(C)c(=S)n(C)c1=O : active
CC1(c2cccc3ccccc23)OC(=O)c2ccccc21 (configuration not stated) : inactive
S=C(Nc1ccc(Br)cn1)NC12CC3CC(CC(C3)C1)C2 : inactive
Clc1ccc2c(NCCCCCCNc3ccnc4cc(Cl)ccc34)ccnc2c1 : inactive
C/C(=N/NC(=S)Nc1ccc(Cl)cc1)c1cccc(/C(C)=N\NC(=S)Nc2ccc(Cl)cc2)n1 : inactive

###

tested on: SK-MEL-2; assay: NCI tumour cell line growth inhibition, 48 h
Calls of active or inactive are those of the source. Cut-off read from the data, not from the text of the source: active = GI50 up to about 1.1 µM and inactive = higher. Square brackets hold non-standard residues; d marks the D form. Peptide text beside a SMILES is read from it. * marks the point of attachment. ξ: configuration not given here. ξD = NC(CC(=O)O)C(=O)O; Ac3c = NC1(C(=O)O)CC1; Boc = CC(C)(C)OC(=O)*; OtBu = CC(C)(C)O*
Outcomes: T = active, F = inactive

Nc1nc(N)nc(-c2cnccn2)n1 : F
CCC1(O)CC(OC2CC(N(C)C)C(OC3CC(O)C(OC4CCC(=O)C(C)O4)C(C)O3)C(C)O2)c2c(O)c3c(c(O)c2C1C(=O)OC)C(=O)c1cccc(O)c1C3=O (stereo unspecified) : T
O=C(CCc1cc(O)cc(O)c1)NCCc1cc(O)cc(OCc2ccccc2)c1 : F
NCCN(CCN(C(=O)Nc1ccccc1)c1ccccc1)C(=O)Nc1ccccc1 : F
CCCC[C@H](CCc1ccccc1)N(C(=O)OC)N1CCC[C@H]1COC : F
COC(=O)C1(NC(=O)C(CC(=O)OC(C)(C)C)NC(=O)OC(C)(C)C)CC1 (stereo unspecified) (Boc-[ξD](OtBu)-[Ac3c]-OMe) : F
C=CC[C@@]1(C#N)C[C@H](C[C@]2(C#N)C[C@H](CCl)OC(C)(C)O2)OC(C)(C)O1 : F
C=CCN1CCC2(CC1)NC(=O)c1ccccc1O2 : F
COC1=C(C)C(=O)C2=C(C1=O)C1C3CC4=C(C(=O)C(OC)=C(C)C4=O)C(CNC(=O)C(C)=O)N3C(C#N)C(C2)N1C (stereo unspecified) : T
COP(=O)(C(/C=C/c1ccccc1)OC(C)=O)[C@@H]1CCCC[C@H]1N(CC(C)(C)C)C(C)=O (stereo partly specified) : F
O=C1CCCC2=C1C(c1ccc3c(c1)OCO3)Nc1ccc3ccccc3c12 (stereo unspecified) : F
O=C(CN1CCOCC1)Nc1nc(-c2ccc(Cl)cc2)cs1 : F
CC(=O)Oc1ccc2c(=O)c(C(C)=O)coc2c1 : F
NNC(=O)c1nn[nH]c1SSc1[nH]nnc1C(=O)NN : F
COc1ccc(-c2nc3ncccn3c2-c2ccc(S(C)(=O)=O)cc2)cc1 : F
OC(c1ccc(C(F)(F)F)cc1)C(F)(F)c1nc2ccccc2o1 (stereo unspecified) : F
CC[C@H](NC(=O)OC(C)(C)C)C(=O)NCP(=O)(OCc1ccc([N+](=O)[O-])cc1)OCc1ccc([N+](=O)[O-])cc1 : F
CC1(C=O)CC(CCc2ccccc2)NC1Cc1ccc(O)cc1 (stereo unspecified) : F
CC(=O)N(C(C)=O)n1nc2c(n1)C(=O)c1ccccc1C2=O : F
CCOC(=O)c1c(-c2ccccc2)nc2c(OC)nccn12 : F
CCOC1OCCCC1Br (stereo unspecified) : F

###

test system: NCI/ADR-RES; assay: NCI tumour cell line growth inhibition, 48 h
The source made the active and inactive calls. Cut-off read from the data, not from the text of the source: active = GI50 up to about 1.1 µM and inactive = higher. Square brackets hold non-standard residues; d marks the D form. Peptide text beside a SMILES is read from it. * marks the point of attachment. ξ: configuration not given here. ξD = NC(CC(=O)O)C(=O)O; Ac3c = NC1(C(=O)O)CC1; Boc = CC(C)(C)OC(=O)*; OtBu = CC(C)(C)O*
Readout Kind: GI50

CC(C)(C)C(=O)Nc1cccc(-c2ccc[nH]2)n1 : > 100 µM (inactive)
CCCn1cc2c3c(cccc31)C1C=C(C)CN(C)C1C2 (configuration not stated) : 20.8 µM (inactive)
CCOC(=O)c1ccc(C(=O)/C(C#N)=C2\CCCN2)n1C : 34.2 µM (inactive)
CCCCN1CSC(=S)N(Cc2ccccc2)C1 : 54.3 µM (inactive)
COC(=O)NC1(NC(=O)OC)NC(=O)c2ccccc2N1 : > 100 µM (inactive)
O=C1NC(c2ccc3ccccc3c2)Nc2ccccc21 (configuration not stated) : 62.4 µM (inactive)
COC(=O)C1(NC(=O)C(CC(=O)OC(C)(C)C)NC(=O)OC(C)(C)C)CC1 (configuration not stated) (Boc-[ξD](OtBu)-[Ac3c]-OMe) : > 100 µM (inactive)
NCCOc1ccccn1 : > 100 µM (inactive)
CO/[N+]([O-])=C\C(=O)N/C=C/C(=O)O : > 100 µM (inactive)
CCCOC(=O)c1cc(C(=CCC[C@H]2CC[C@@]3(C)[C@@H](CC[C@@H]4[C@@H]3CC[C@]3(C)[C@@H](C(C)CCCC(C)C)CC[C@@H]43)C2)c2cc(Cl)c(O)c(C(=O)OCCC)c2)cc(Cl)c1O (some centres not stated) : > 50 µM (inactive)
NC1=Nc2ccccc2Sc2nc3ccccc3n21 : 27 µM (inactive)
CC(C)(O)C1CC[C@]2(C)[C@H]3CC[C@@H]4[C@@]5(C)CCCC(C)(C)[C@@H]5CC[C@@]4(C)[C@]3(C)CC[C@@H]12 (some centres not stated) : > 100 µM (inactive)
COc1ccc(CC2CCc3nc(N)nc(N)c3C2)cc1OC (configuration not stated) : 1.29 µM (inactive)
C1=C\SS/C=C\SS/C=C\SS/C=C\SS/1 : > 100 µM (inactive)
CCOC(=O)c1ccc2nc3n(c2c1)C(c1c(F)cccc1F)SC3 (configuration not stated) : > 100 µM (inactive)
CCOC(=O)/C(=C/c1cn(C(C)=O)c2ccccc12)P(=O)(OC)OC : 29.2 µM (inactive)
N=C(N)Nc1ccc(CC(N)C(=O)NCC(=O)C(CC(=O)O)c2ncc(NC(=O)C(F)(F)F)o2)cc1 (configuration not stated) : > 25 µM (inactive)
Cc1ccc(C)c2c1CC(Cc1ccccc1C(=O)O)C2=O (configuration not stated) : > 100 µM (inactive)
Cc1cc2ncn(C3CCCCO3)c2cc1C (configuration not stated) : > 100 µM (inactive)
O=c1[nH]nc(Cn2c3ccc(Br)cc3c3nc4ccccc4nc32)n1C1CCCCC1 : > 100 µM (inactive)
CCCCCCCCCCCCCCCCCCNc1ccn(C2OC(COP(=O)(O)OCC3OC(n4cc(C)c(=O)[nH]c4=O)CC3N=[N+]=[N-])C(O)C2O)c(=O)n1 (configuration not stated) : 21 µM (inactive)
CCOP(=O)(OCC)C1=C(c2ccccc2)OC(N)=C(C#N)C1c1ccc(Cl)cc1 (configuration not stated) : > 100 µM (inactive)
Clc1ccc2c(NCCCCCCNc3ccnc4cc(Cl)ccc34)ccnc2c1 : 4.56 µM (inactive)
c1ccc(NC2(c3nnnn3C3CCCCC3)CCNCC2)cc1 : 66.5 µM (inactive)
Cc1cc2oc3c(ccc(=O)n3C)c(=O)c2c(C)c1Cl : 72.9 µM (inactive)
O=C1CCCC2=C1C(c1ccc3c(c1)OCO3)Nc1ccc3ccccc3c12 (configuration not stated) : 55.1 µM (inactive)
CCCCCCCCC(=O)NCCN(CCN)C(=O)CCCCCCCC : 13.1 µM (inactive)

###

tested on: SF-295; assay: NCI tumour cell line growth inhibition, 48 h
The source made the active and inactive calls. Cut-off read from the data, not from the text of the source: active = GI50 up to about 1.1 µM and inactive = higher.
Outcome codes: YES for active, NO for inactive

Cn1cc2ccccc2c1-c1nc(F)nc(Oc2ccc3c(c2)CC[C@@H]2C3CC[C@]3(C)C(O)CCC23)n1 (some centres not stated) : NO
NC1=Nc2ccccc2Sc2nc3ccccc3n21 : NO
COc1cccc(/C=C/C(=O)N2CC(CCl)c3c2cc(N)c2ccccc32)c1 (configuration not stated) : YES
CCOC(=O)c1c(O)nc(O)c(CC)c1C : NO
N/N=C(/Cc1nc2ccc(C(=O)c3ccccc3)cc2nc1O)C(=O)Nc1ccc([N+](=O)[O-])cc1[N+](=O)[O-] : NO
CCC1(O)CC(OC2CC(N(C)C)C(OC3CC(O)C(OC4CCC(=O)C(C)O4)C(C)O3)C(C)O2)c2c(O)c3c(c(O)c2C1C(=O)OC)C(=O)c1cccc(O)c1C3=O (configuration not stated) : YES
O=C(O)CCC1(Br)CCCCC(Br)C1=O (configuration not stated) : NO
O=C(CSc1nccc(=O)[nH]1)c1ccccc1 : NO
O=C(CCc1cc(O)cc(O)c1)NCCc1ccc(O)c(O)c1 : NO
CCCSc1cc(Cl)c(C)cc1S(=O)(=O)n1ccnc1O : NO
CC(C)(C)C(=O)OCC1OC(N=[N+]=[N-])C(OC(=O)C(C)(C)C)C(OC(=O)C(C)(C)C)C1OC(=O)C(C)(C)C (configuration not stated) : NO
COc1cccc2c1c1ccc3c(c1n2C)C(=O)C=CC3=O : NO
COc1ccc(-c2c(C(=O)Nc3ccccc3)c(-c3ccccc3)n(C3OC(CO)C(O)C(O)C3O)c(=S)c2C#N)cc1 (configuration not stated) : NO
O=C(Nc1cccc2ccccc12)Nn1cnnc1 : NO
COC(=O)NC1(NC(=O)OC)NC(=O)c2ccccc2N1 : NO
CC(=O)O[C@]1(C)CCC2C(C)C(=O)OC2C2C(C)[C@@H](O)CC21 (some centres not stated) : NO
NC1CCN(c2nc3ccccc3c3c2CCCC3)CC1 : NO
CN(C)/N=N/c1ccc([N+](=O)[O-])cc1C(N)=O : NO
Cc1cc2oc3c(ccc(=O)n3C)c(=O)c2c(C)c1Cl : NO
c1ccc([P+](Cc2ccc(C[P+](c3ccccc3)(c3ccccc3)c3ccccc3)s2)(c2ccccc2)c2ccccc2)cc1 : NO
CCOC(=O)CCC(NC(=O)c1ccc(Nc2cnc3cc(C(F)(F)F)ccc3n2)cc1)C(=O)OCC (configuration not stated) : NO
COc1cccc(NC(=O)CSc2nnc(-c3ccc(/N=C\c4ccc(Cl)cc4)cc3)o2)c1 : NO
Cc1ccc(/C=N/NS(=O)(=O)c2ccc(/C=C3\NC(=O)NC3=O)cc2)cc1 : NO
O=C(O)/C(=C\c1ccncc1)c1cccc2ccccc12 : NO
COC1CC(OC2CCC3(C)C(=CCC4C3C(OC(C)=O)C(OC(=O)CC(C)C)C3(C)C(C(C)=O)CCC43O)C2)OC(C)C1OC1CC(OC)C(OC2CC(OC)C(OC3OC(C)C(O)C(OC)C3O)C(C)O2)C(C)O1 (configuration not stated) : NO
CCCC[C@H](CCc1ccccc1)N(C(=O)OC)N1CCC[C@H]1COC : NO
CCCCCCCCCCCCCCCCCCNc1ccn(C2OC(COP(=O)(O)OCC3OC(n4cc(C)c(=O)[nH]c4=O)CC3N=[N+]=[N-])C(O)C2O)c(=O)n1 (configuration not stated) : NO
